Target: CDK2/CycA (Homo sapiens (Human), UniProt P24941)
Test: LANCE Ultra kinase activity inhibition assay, CDK2/CycA
Format: biochemical
Conditions: ATP 10 μM, highest compound concentration 10 μM
propertyLabel: IC50 (µM)
# number only, unit µM dropped from output

Per the record, Cc1cnn2c(N[C@H]3CC[C@H](N)C3)cc(CC3CC3)nc12 has IC50 of 6.15

IC50 for N[C@H]1CC[C@H](Nc2cc(C(C3CC3)C3CC3)nc3c(C4CC4)cnn23)C1 is 2.55

Entry CC(C)c1cnn2c(N[C@H]3CC[C@H](N)C3)cc(C(C3CC3)C3CC3)nc12 , IC50 reported as 2.92

Now take the following compound into account.
Entry CCc1cnn2c(N[C@H]3CC[C@H](N)C3)cc(C(C)C3CC3)nc12 (stereo partly shown) ; IC50 = 4.39

// data source = patent US20240109898A1
